Catalogue of Pre-emergence efficacy against AMARE in % readings, one per entry.
System: Amaranthus retroflexus (AMARE)
Experiment: A. Herbicidal pre-emergence efficacy, AMARE
Assay type: in vivo
Settings: 80 g/ha
From the text: Seeds of mono- and dicotyledonous weed plants were placed in plastic pots in sandy loam soil (doubly sown with one species each of mono- or dicotyledonous weed plants per pot) and covered with soil. […] After about 3 weeks, the efficacy of the preparations was scored visually in comparison with untreated controls as percentages. […]
Give just the numeric value; % need not be written.

q: # return recorded Pre-emergence efficacy against AMARE in % for input "O=S(=O)(CCCC(F)(F)F)Oc1c(F)cccc1Oc1ncc(Br)cn1"
a: 100

q: # return recorded Pre-emergence efficacy against AMARE in % for input "O=S(=O)(CCC(F)(F)F)Oc1c(Br)cccc1Oc1ncc(F)cn1"
a: 100

q: # return recorded Pre-emergence efficacy against AMARE in % for input "O=S(=O)(CC1CC(F)(F)C1)Oc1c(Br)cccc1Oc1ncc(Cl)cn1"
a: 90

q: # return recorded Pre-emergence efficacy against AMARE in % for input "O=S(=O)(CCCC(F)(F)F)Oc1c(Cl)cccc1Oc1ncc(Br)cn1"
a: 90

Others:
q: # return recorded Pre-emergence efficacy against AMARE in % for input "O=S(=O)(Oc1ccccc1Oc1ncc(Cl)cn1)C1CCCC1"
a: 90

q: # return recorded Pre-emergence efficacy against AMARE in % for input "O=S(=O)(CCC(F)=C(F)F)Oc1c(Cl)cccc1Oc1ncc(Cl)cn1"
a: 90

q: # return recorded Pre-emergence efficacy against AMARE in % for input "O=S(=O)(CCC(F)(F)F)Oc1c(F)cccc1Oc1ncc(Br)cn1"
a: 100

q: # return recorded Pre-emergence efficacy against AMARE in % for input "C=CCCS(=O)(=O)Oc1c(F)cccc1Oc1ncc(Cl)cn1"
a: 90

q: # return recorded Pre-emergence efficacy against AMARE in % for input "CCCCCS(=O)(=O)Oc1ccccc1Oc1ncc(Cl)cn1"
a: 90

----------
Catalogue of Post-emergence efficacy against ALOMY in % readings, one per entry.
system: Alopecurus myosuroides (ALOMY); assay: E. Herbicidal post-emergence efficacy, ALOMY; assay type: in vivo; details: application rate 320 g/ha
Give just the numeric value; % need not be written.

Record excerpt, results attached:
q: Determine reported Post-emergence efficacy against ALOMY in % for "CCCCS(=O)(=O)Oc1ccccc1Oc1ncc(Cl)cn1" ; test system: Alopecurus myosuroides (ALOMY).
a: 90

q: Determine reported Post-emergence efficacy against ALOMY in % for "O=S(=O)(CCC(F)(F)F)Oc1c(F)cccc1Oc1ncc(F)cn1" ; test system: Alopecurus myosuroides (ALOMY).
a: 100

q: Determine reported Post-emergence efficacy against ALOMY in % for "O=S(=O)(CCC(F)(F)F)Oc1c(Cl)cccc1Oc1ncc(Cl)cn1" ; test system: Alopecurus myosuroides (ALOMY).
a: 80

q: Determine reported Post-emergence efficacy against ALOMY in % for "O=S(=O)(CCCC(F)(F)F)Oc1ccccc1Oc1ncc(Cl)cn1" ; test system: Alopecurus myosuroides (ALOMY).
a: 100

q: Determine reported Post-emergence efficacy against ALOMY in % for "O=S(=O)(CC1CC(F)(F)C1)Oc1c(F)cccc1Oc1ncc(Cl)cn1" ; test system: Alopecurus myosuroides (ALOMY).
a: 100

Others:
q: Determine reported Post-emergence efficacy against ALOMY in % for "O=S(=O)(CCC(F)(F)F)Oc1c(F)cccc1Oc1ncc(Br)cn1" ; test system: Alopecurus myosuroides (ALOMY).
a: 90

q: Determine reported Post-emergence efficacy against ALOMY in % for "O=S(=O)(CCCC(F)(F)F)Oc1c(F)cccc1Oc1ncc(Br)cn1" ; test system: Alopecurus myosuroides (ALOMY).
a: 100

q: Determine reported Post-emergence efficacy against ALOMY in % for "O=S(=O)(CCCCl)Oc1c(F)cccc1Oc1ncc(Cl)cn1" ; test system: Alopecurus myosuroides (ALOMY).
a: 90

q: Determine reported Post-emergence efficacy against ALOMY in % for "O=S(=O)(CCCC(F)(F)F)Oc1c(F)cccc1Oc1ncc(Cl)cn1" ; test system: Alopecurus myosuroides (ALOMY).
a: 80
